# system-under-test: T1, Cynomolgus EGFR extracellular domain (Cynomolgus monkey (Macaca fascicularis), UniProt P55245 25-645 (rhesus entry))
# T1 construct: Cloned without signal peptide; also called Cynomolgus rEGFR ECD; Cynomolgus EGFR ECD
# procedure-details: ELISA on cynomolgus EGFR ECD (Example 10)

binder	binding result
antibody 1260 (antibody, human IgG1, kappa, V domains shown, Chimeric IgG1 kappa) VH: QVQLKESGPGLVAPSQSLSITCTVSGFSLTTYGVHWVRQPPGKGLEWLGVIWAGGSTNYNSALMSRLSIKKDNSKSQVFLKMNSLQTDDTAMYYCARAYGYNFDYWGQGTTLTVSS VL: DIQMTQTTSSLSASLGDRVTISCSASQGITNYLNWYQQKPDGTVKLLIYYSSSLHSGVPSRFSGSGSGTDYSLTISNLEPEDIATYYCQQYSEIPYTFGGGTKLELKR	binds
